Just for reference, ChEMBL document CHEMBL5058577 is where these values come from.

System: HEK-293T
test_name: Multiplex assay against HEK293T
Format: toxicity, cell-based
measurement_parameters: human, 12 h, 10 µM, compound concentration 10 uM, replicate 1
measured_endpoint: Total Cell Count
Simply state the number, no unit and no words.

Ask: What value of Total Cell Count has been recorded for this entry: Cc1ccc(C(C)(O)c2nc3ccccc3s2)c(C)c1 (stereo not given)
Reply: 412

Ask: What value of Total Cell Count has been recorded for this entry: CC(C)(C)c1ccc(S(=O)(=O)Nc2ccc(Cl)cc2C(=O)c2cc[n+]([O-])cc2)cc1 [VERCIRNON]
Reply: 451

Ask: What value of Total Cell Count has been recorded for this entry: CN1CCN(c2nc3cc(C(F)(F)F)ccc3n3cccc23)CC1.O=C(O)/C=C\C(=O)O.O=C(O)/C=C\C(=O)O
Reply: 396

Ask: What value of Total Cell Count has been recorded for this entry: CCNC1(C(N)=O)CCN(c2ncnc3c2nc(-c2ccccc2Cl)n3-c2ccc(Cl)cc2)CC1 [OTENABANT]
Reply: 381

Ask: What value of Total Cell Count has been recorded for this entry: Cc1ccccc1C(=O)Nc1ccc(C(=O)N2CCCC(N(C)C)c3ccccc32)cc1.Cl (stereo not given)
Reply: 233

Ask: What value of Total Cell Count has been recorded for this entry: CCCn1c(=O)c2[nH]c(C3CCCC3)nc2n(CCC)c1=O
Reply: 295

Ask: What value of Total Cell Count has been recorded for this entry: Oc1c(CN2CCN(c3ccccn3)CC2)cc(Cl)c2cccnc12
Reply: 197

Ask: What value of Total Cell Count has been recorded for this entry: CN(C)c1ccnc2sc3c(=O)n(N4CCCCCC4)cnc3c12
Reply: 387

Ask: What value of Total Cell Count has been recorded for this entry: CSc1ccccc1N1CCN(CCCCCC(=O)NC2CCCc3ccccc32)CC1.Cl (stereo not given)
Reply: 316

Ask: What value of Total Cell Count has been recorded for this entry: COc1ccc2c(c1)C(C(=O)N(Cc1ccc(N(C)C)cc1)c1ccc(C(C)C)cc1)CCC2.Cl (stereo not given)
Reply: 383
